Target: UniProt P35372
Sequence (P35372 whole entry): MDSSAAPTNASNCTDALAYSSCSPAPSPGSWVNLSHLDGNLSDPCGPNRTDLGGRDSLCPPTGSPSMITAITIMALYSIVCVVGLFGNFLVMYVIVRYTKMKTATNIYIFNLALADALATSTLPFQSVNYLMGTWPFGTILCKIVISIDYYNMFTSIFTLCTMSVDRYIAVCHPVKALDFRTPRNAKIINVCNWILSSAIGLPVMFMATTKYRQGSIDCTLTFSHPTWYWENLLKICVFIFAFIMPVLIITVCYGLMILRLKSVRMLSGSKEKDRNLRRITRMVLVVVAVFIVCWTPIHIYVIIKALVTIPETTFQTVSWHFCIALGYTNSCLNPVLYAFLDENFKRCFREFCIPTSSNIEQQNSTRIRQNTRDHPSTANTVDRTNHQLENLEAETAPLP
Catalogue of AC50 readings, one per entry.

Please review the following examples before continuing.
{"compound": "CN(C)C(=O)Oc1cccc([N+](C)(C)C)c1", "AC50": "> 30 µM"}
{"compound": "C[n+]1ccccc1/C=N/O", "AC50": "> 30 µM"}
{"compound": "CC1(C)O[C@@H]2[C@@H](CO[C@@]3(COS(N)(=O)=O)OC(C)(C)O[C@@H]23)O1 [TOPIRAMATE]", "AC50": "> 30 µM"}
{"compound": "CN1CCC[C@H]1c1cccnc1", "AC50": "> 30 µM"}
{"compound": "Cc1cc(CCN2CCN(c3cccc(Cl)c3)CC2)n[nH]1 [MEPIPRAZOLE]", "AC50": "15.7 µM"}

Give AC50 for CC(=O)Oc1ccccc1C(=O)Nc1ncc([N+](=O)[O-])s1 [NITAZOXANIDE] > 30 µM

Give AC50 for CCCC(=O)O[C@H]1[C@H](C)O[C@@H](O[C@H]2[C@H](N(C)C)[C@@H](O)[C@H](O[C@H]3[C@@H](CC=O)C[C@@H](C)[C@@H](O)/C=C/C=C/C[C@@H](C)OC(=O)C[C@@H](O)[C@@H]3OC)O[C@@H]2C)C[C@@]1(C)OC(=O)CC > 30 µM

Give AC50 for CNC(=O)Oc1ccc2c(c1)[C@]1(C)CCN(C)[C@@H]1N2C 5.74 µM

* * *

Reported AC50, Gamma-aminobutyric acid receptor subunit alpha-1 (Rattus norvegicus).

Give AC50 for CCCCCCCC(=O)N[C@H](CN1CCCC1)[C@H](O)c1ccc2c(c1)OCCO2 > 30 µM

* * *

Reported AC50, Beta-2 adrenergic receptor (Homo sapiens, UniProt P07550).

Please review the following examples before continuing.
{"molecule": "O=C(Nc1c(Cl)cncc1Cl)c1ccc(OC(F)F)c(OCC2CC2)c1 [ROFLUMILAST]", "measured_on": "Beta-2 adrenergic receptor (Homo sapiens, UniProt P07550)", "AC50": "> 30 µM"}
{"molecule": "N#Cc1ccccc1-c1cc(-c2ccccn2)cn(-c2ccccc2)c1=O", "measured_on": "Beta-2 adrenergic receptor (Homo sapiens, UniProt P07550)", "AC50": "> 30 µM"}
{"molecule": "COC(=O)[C@H](c1ccccc1Cl)N1CCc2sccc2C1 [CLOPIDOGREL]", "measured_on": "Beta-2 adrenergic receptor (Homo sapiens, UniProt P07550)", "AC50": "> 30 µM"}
{"molecule": "O=C1Nc2ccc(Cl)cc2C(c2ccccc2)=NC1O (stereo unspecified) [OXAZEPAM]", "measured_on": "Beta-2 adrenergic receptor (Homo sapiens, UniProt P07550)", "AC50": "> 10 µM"}
{"molecule": "C#C[C@]1(O)CC[C@H]2[C@@H]3CCC4=CC(=O)CCC4=C3C=C[C@@]21CC [GESTRINONE]", "measured_on": "Beta-2 adrenergic receptor (Homo sapiens, UniProt P07550)", "AC50": "> 30 µM"}

Proceed to the following item.
Give AC50 for O=C1NC(=O)C(c2ccccc2)(c2ccccc2)N1 [PHENYTOIN] > 10 µM

* * *

Molecular target: Alpha-2A adrenergic receptor (Homo sapiens, UniProt P08913); note: assay procedure not described here
Sequence (P08913 whole entry): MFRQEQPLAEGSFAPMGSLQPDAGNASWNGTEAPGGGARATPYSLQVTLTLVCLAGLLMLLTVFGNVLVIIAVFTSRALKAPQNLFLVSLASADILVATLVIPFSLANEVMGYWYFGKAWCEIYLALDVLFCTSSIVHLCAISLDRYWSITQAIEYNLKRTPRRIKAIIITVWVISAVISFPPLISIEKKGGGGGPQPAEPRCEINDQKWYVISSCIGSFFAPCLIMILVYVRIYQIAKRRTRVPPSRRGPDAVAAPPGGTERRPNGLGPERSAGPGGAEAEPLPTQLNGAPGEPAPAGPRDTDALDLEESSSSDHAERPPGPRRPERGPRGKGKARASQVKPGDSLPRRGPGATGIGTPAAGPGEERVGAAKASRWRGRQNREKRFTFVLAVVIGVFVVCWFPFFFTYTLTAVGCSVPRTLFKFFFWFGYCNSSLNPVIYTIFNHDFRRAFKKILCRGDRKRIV
parameter_measured: AC50

Please review the following examples before continuing.
{"compound": "NC(=O)c1nc(F)c[nH]c1=O", "endpoint_result": "> 30 µM"}
{"compound": "C[C@@H]1C[C@H]2[C@@H]3C[C@H](F)C4=CC(=O)C=C[C@]4(C)[C@@]3(Cl)[C@@H](O)C[C@]2(C)[C@H]1C(=O)COC(=O)C(C)(C)C [CLOCORTOLONE PIVALATE]", "endpoint_result": "> 30 µM"}
{"compound": "CNC(=O)C[C@@H](N)C(=O)N[C@@H](C(=O)N[C@@H]1C(=O)N2[C@@H]1SC(C)(C)[C@@H]2C(=O)O)c1ccc(O)cc1 [ASPOXICILLIN]", "endpoint_result": "> 30 µM"}
{"compound": "CN1CCC[C@@H]1Cc1c[nH]c2ccc(CCS(=O)(=O)c3ccccc3)cc12", "endpoint_result": "7.51 µM"}
{"compound": "COc1cc([C@@H]2c3cc4c(cc3[C@@H](O[C@@H]3O[C@@H]5CO[C@@H](c6cccs6)O[C@H]5[C@H](O)[C@H]3O)[C@H]3COC(=O)[C@H]23)OCO4)cc(OC)c1O [TENIPOSIDE]", "endpoint_result": "> 30 µM"}

Give AC50 for Cc1ccc([C@@H]2O[C@H](CO)[C@@H](O)[C@H](O)[C@H]2O)cc1Cc1ccc(-c2ccc(F)cc2)s1 [CANAGLIFLOZIN ANHYDROUS] > 30 µM

Give AC50 for CC[C@H]1OC(=O)[C@H](C)[C@@H](O[C@H]2C[C@@](C)(OC)[C@@H](O)[C@H](C)O2)[C@H](C)[C@@H](O[C@@H]2O[C@H](C)C[C@H](N(C)C)[C@H]2O)[C@](C)(OC)C[C@@H](C)C(=O)[C@H](C)[C@@H](O)[C@]1(C)O [CLARITHROMYCIN] > 30 µM

Give AC50 for CCCCCCCCNC(C)C(O)c1ccc(SC(C)C)cc1 (stereo not drawn) [SULOCTIDIL] 6.75 µM

Give AC50 for CCCCCCCCCCCCCCCC(=O)OC/C=C(C)/C=C/C=C(C)/C=C/C1=C(C)CCCC1(C)C [VITAMIN A PALMITATE] > 30 µM

Give AC50 for CC(=O)OC(C)OC(=O)C(C)c1ccc(-c2ccccc2)c(F)c1 (stereo not drawn) > 30 µM

Give AC50 for O=C(Nc1cccc2c(=O)cc(-c3nnn[nH]3)oc12)c1ccc(OCCCCc2ccccc2)cc1 > 30 µM

Give AC50 for CNC(=O)c1cc(Oc2ccc(NC(=O)Nc3ccc(Cl)c(C(F)(F)F)c3)c(F)c2)ccn1 [REGORAFENIB] > 10 µM

Give AC50 for O=C1[C@H]2CCCC[C@H]2C(=O)N1CCCCN1CCN(c2nsc3ccccc23)CC1 [PEROSPIRONE] 0.22 µM

Give AC50 for O=S(=O)(O)CCS [2-MERCAPTOETHANESULFONIC ACID] > 30 µM

Give AC50 for CCCCCCCCCCCCCCCCCC(=O)NCCCC[C@H](NC(=O)CC[C@@H](NC(=O)[C@H](C)NC(=O)[C@@H](C)O[C@H]1[C@H](O)[C@@H](CO)OC(O)[C@@H]1NC(C)=O)C(N)=O)C(=O)O (stereo partly drawn) [ROMURTIDE] > 30 µM

Give AC50 for C[C@H]1O[C@@H](O[C@H]2[C@@H](O)C[C@H](O[C@H]3[C@@H](O)C[C@H](O[C@H]4CC[C@@]5(C)[C@H](CC[C@@H]6[C@@H]5CC[C@]5(C)[C@@H](C7=CC(=O)OC7)CC[C@]65O)C4)O[C@@H]3C)O[C@@H]2C)C[C@H](O)[C@@H]1O [DIGITOXIN] > 30 µM

Give AC50 for c1ccc2c(CC3=NCCN3)cccc2c1 [NAPHAZOLINE] 0.022 µM

Give AC50 for CN1CCN(CCCN2c3ccccc3Sc3ccc(S(=O)(=O)N(C)C)cc32)CC1 [THIOPROPERAZINE] 1.42 µM

Give AC50 for Cc1onc(-c2c(Cl)cccc2Cl)c1C(=O)N[C@@H]1C(=O)N2[C@@H]1SC(C)(C)[C@@H]2C(=O)O [DICLOXACILLIN] > 30 µM

Give AC50 for CO[C@H]1/C=C/O[C@@]2(C)Oc3c(C)c(O)c4c(O)c(cc(O)c4c3C2=O)NC(=O)/C(C)=C\C=C\[C@H](C)[C@H](O)[C@@H](C)[C@@H](O)[C@@H](C)[C@H](OC(C)=O)[C@@H]1C [RIFAMYCIN] > 30 µM

Give AC50 for CCCCCCCCCCC[C@@H](C[C@@H]1OC(=O)[C@H]1CCCCCC)OC(=O)[C@H](CC(C)C)NC=O [ORLISTAT] > 30 µM

Give AC50 for N=C(N)NCc1cccc([123I])c1 [IOBENGUANE I 123] 0.488 µM

Give AC50 for O=C(O)CC(O)(CC(=O)O)C(=O)O [CITRIC ACID] > 30 µM
